This collection of values is drawn from patent US7858618B2.

Molecular target: hBK1 receptor (Homo sapiens)
Sequence (P46663 1-353): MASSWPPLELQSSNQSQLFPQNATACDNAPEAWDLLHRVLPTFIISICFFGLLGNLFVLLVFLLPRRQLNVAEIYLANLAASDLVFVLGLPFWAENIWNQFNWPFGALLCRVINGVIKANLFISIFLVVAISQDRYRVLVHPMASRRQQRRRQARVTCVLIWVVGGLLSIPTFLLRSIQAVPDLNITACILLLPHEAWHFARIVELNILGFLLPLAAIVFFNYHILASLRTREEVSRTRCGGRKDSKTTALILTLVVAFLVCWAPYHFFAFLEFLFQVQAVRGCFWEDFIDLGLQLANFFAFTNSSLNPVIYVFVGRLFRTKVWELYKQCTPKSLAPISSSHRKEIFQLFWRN
pKi: −log10 of the molar value.
property.measured: pKi

# item.smiles, property.measured, endpoint.value
measured = [
    ("CCN1CCC(N2CC[C@@H](N(C)C(=O)COCCN(C)S(=O)(=O)c3c(C)cc(OC)cc3C)C2)CC1", "pKi", 9.10),
    ("COc1cc(C)c(S(=O)(=O)N(C)CCC(=O)Nc2cc(C)c(N3CCC(N(C)C)CC3)cc2Cl)c(C)c1", "pKi", 8.47),
    ("COc1cc(C)c(S(=O)(=O)N(C)CCOCC(=O)N(C)Cc2ccc3nc(N(C)C)ccc3c2)c(C)c1", "pKi", 8.62),
    ("COc1cc(C)c(S(=O)(=O)N(C)CCC(=O)NCc2ccc(N3CCC(N4CCCC4)CC3)c(C)c2)c(C)c1", "pKi", 8.11),
    ("COc1cc(C)c(S(=O)(=O)N(C)CCOCC(=O)N(C)Cc2ccc(-c3cn(C)cn3)cc2)c(C)c1", "pKi", 8.34),
]

[a] COc1cc(C)c(S(=O)(=O)N(C)CCOCC(=O)N(C)[C@@H]2CCN(C(=O)CCN3CCCCC3)C2)c(C)c1
[b] COc1cc(C)c(S(=O)(=O)N(C)CCC(=O)Nc2ccc(N3CCN(c4ccncc4)CC3)nc2)c(C)c1
Data request: Would you kindly point out which of a and b has the smaller pKi figure? Identify your pick by its label.
Data returned: b

====

Target chain: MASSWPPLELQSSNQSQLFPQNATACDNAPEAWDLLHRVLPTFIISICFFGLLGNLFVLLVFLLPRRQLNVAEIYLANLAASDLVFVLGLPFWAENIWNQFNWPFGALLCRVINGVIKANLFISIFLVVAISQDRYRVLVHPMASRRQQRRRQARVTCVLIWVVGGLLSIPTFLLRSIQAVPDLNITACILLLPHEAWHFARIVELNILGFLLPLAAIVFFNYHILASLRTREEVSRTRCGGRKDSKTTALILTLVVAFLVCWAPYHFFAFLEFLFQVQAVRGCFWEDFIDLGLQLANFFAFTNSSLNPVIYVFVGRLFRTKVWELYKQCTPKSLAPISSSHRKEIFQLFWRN
pKi: −log10 of the molar value.
property.measured: pKi

Example entries begin here.
# compound, property.measured, endpoint.value
rows = [
    ("COc1cc(C)c(S(=O)(=O)N(C)CCOCC(=O)N(C)CC2CCC(N3CCN(C)CC3)CC2)c(C)c1 (stereo not shown)", "pKi", 8.04),
    ("COc1cc(C)c(S(=O)(=O)N(C)CCOCC(=O)N(C)C2CCC(N3CCC(CN4CCCC4)CC3)CC2)c(C)c1 (stereo not shown)", "pKi", 9.19),
]

[I] COc1cc(C)c(S(=O)(=O)N(C)CCOCC(=O)N(C)Cc2ccc(NCCN(C)C)cc2)c(C)c1
[II] COc1cc(C)c(S(=O)(=O)N(C)CCOCC(=O)N(C)Cc2ccc(N3CCC(N(C)C)C3)cc2)c(C)c1 (stereo not shown)
Data request: Would you kindly point out which of I and II has the smaller pKi figure? Identify your pick by its label.
Data returned: II
